The entries below come with measured IC50 values attached.
Molecular target: GIPR (CHO-K1-hGIPR cells) (Homo sapiens)
Construct: host or cells: CHO-K1
Sequence (P48546 22-466): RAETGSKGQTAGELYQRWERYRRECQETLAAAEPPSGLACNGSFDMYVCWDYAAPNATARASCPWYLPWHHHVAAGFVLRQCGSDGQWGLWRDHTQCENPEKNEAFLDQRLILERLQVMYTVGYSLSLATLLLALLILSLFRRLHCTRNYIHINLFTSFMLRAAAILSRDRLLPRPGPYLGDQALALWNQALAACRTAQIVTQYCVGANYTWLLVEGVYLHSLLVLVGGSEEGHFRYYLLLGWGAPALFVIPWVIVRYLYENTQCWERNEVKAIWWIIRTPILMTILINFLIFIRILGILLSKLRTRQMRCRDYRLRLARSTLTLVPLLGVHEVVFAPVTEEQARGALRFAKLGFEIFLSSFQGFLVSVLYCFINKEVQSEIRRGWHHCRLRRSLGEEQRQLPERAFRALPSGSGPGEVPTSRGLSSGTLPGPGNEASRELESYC
Assay: FACS binding assay
Details: competition with 20 nM GIP-057, 4° C. for 1 hour, read-out: pIC50 Category (converted)
*1 amine or outer side, *2 acyl side, *3 side chain or, on linkers, in order; H or OH if unused. Where a SMILES comes first, the peptide text is derived from it. Bridges are numbered along the chain shown (N, C = ends). [ ]: non-standard residue; d: D form. The star is where a group is joined. X5 = NC(=O)[C@H](CCCCNC(=O)CN1CCN(CC(=O)O)CCN(CC(=O)O)CCN(CC(=O)O)CC1)NC(=O)CCC(=O)NCCCOCCOCCOCCCN*; Trp(5-Cl) = N[C@@H](Cc1c[nH]c2ccc(Cl)cc12)C(=O)O; Pyridine(2,6-diCH2) = c1cc(C[*:1])nc(C[*:2])c1; 1Nal = N[C@@H](Cc1cccc2ccccc12)C(=O)O; mXylylene = c1cc(C[*:1])cc(C[*:2])c1; Hyp = O=C(O)[C@@H]1C[C@@H](O)CN1; Thp = NC1(C(=O)O)CCOCC1; Aib = CC(C)(N)C(=O)O

CC[C@H](C)[C@@H]1NC(=O)[C@H](CC(C)C)NC(=O)C2(CCOCC2)NC(=O)[C@@H](NC(=O)[C@@H](CC(C)C)NC(=O)[C@H](Cc2c[nH]cn2)NC(=O)[C@@H]2C[C@@H](O)CN2C(=O)[C@H](Cc2c[nH]c3ccc(Cl)cc23)NC(=O)[C@H](Cc2c[nH]c3ccccc23)NC(=O)[C@H](CC(=O)O)NC(C)=O)CSCc2cccc(n2)CSC[C@@H](C(N)=O)NC1=O [GIP-377] (Ac-DW[Trp(5-Cl)][Hyp]H[dL]C[Thp]LIC-NH2; linker 7-11 via Pyridine(2,6-diCH2)); < 10 nM

Turning now to a further molecule:
Prompt: Reported IC50, molecule CC[C@H](C)[C@@H]1NC(=O)[C@H](CC(C)C)NC(=O)C(C)(C)NC(=O)[C@@H](NC(=O)[C@H](CC(C)C)NC(=O)[C@H](CCC(=O)O)NC(=O)[C@@H]2CCCN2C(=O)[C@H](Cc2cccc3ccccc23)NC(=O)[C@H](Cc2c[nH]c3ccccc23)NC(C)=O)CSCc2cccc(c2)CSC[C@@H](C(=O)NCCCOCCOCCOCCCNC(=O)CCC(=O)N[C@@H](CCCCNC(=O)CN2CCN(CC(=O)O)CCN(CC(=O)O)CCN(CC(=O)O)CC2)C(N)=O)NC1=O [GIP-301] (Ac-W[1Nal]PELC[Aib]LIC-X5; linker 6-10 via mXylylene) : ____
Completion: > 1000 nM
